Source listed as PubChem BioAssay (NCI).

tested on: CAKI-1 renal; test: NCI tumour cell line growth inhibition, 48 h
GI50 overview

# MOLECULE, GI50
measured = [
    ("CC(=O)[C@H]1CCC2[C@@H]3CC=C4C[C@@H]([O-])CC[C@]4(C)C3CC[C@@]21C.CC(=O)[C@H]1CCC2[C@@H]3CC=C4C[C@@H]([O-])CC[C@]4(C)C3CC[C@@]21C.CC(=O)[CH-]C(=O)c1ccccc1.CC(=O)[CH-]C(=O)c1ccccc1.Cl.[Ti+4] (stereo partly drawn)", "19 µM"),
    ("Cn1cc(-c2cnn3c(N)c(Br)c(C4CCCNC4)nc23)cn1 (stereo not drawn)", "5.43 µM"),
    ("C/C(=N\\NC(=O)c1ccccc1O)c1cccc(/C(C)=N/NC(=O)c2ccccc2O)n1.O=S(=O)([O-])[O-].[Fe+2]", "> 100 µM"),
]
